Recorded values, source patent US10214542B2.

Entries and their IC50
tested on: DU145 cells; test: Proliferation assay, crystal violet (Method 3); assay type: cell-based; settings: Homo sapiens, DU-145, 96 h; DU145, 4 days; read-out: Inhibition of DU145 cell proliferation IC50
From the text: […]
Numeric only. Scale: nM

Reference set (3 entries):
CSCc1cc2nc(c1)Nc1cc(c(F)cn1)-c1ccc(F)cc1OCCCN2 [Example 1]
30
CS(=O)(Cc1cc2nc(c1)Nc1cc(c(F)cn1)-c1ccc(F)cc1OCCCCN2)=NC(=O)OCc1ccccc1 (racemic) [Example 2]
93
CN1CCCCNc2cc(F)ccc2-c2nc(ncc2F)Nc2cc(CS(C)(=N)=O)cc1c2.O=CO (racemic) [Example 17]
30

Endpoint output: IC50 of CS(=N)(=O)Cc1cc2nc(c1)Nc1cc(c(F)cn1)-c1ccc(F)cc1OCCCCCN2 (racemic) [Example 10] . Value?
11

Item: CS(=N)(=O)Cc1cc2cc(c1)OCCCCNc1cc(F)ccc1-c1nc(ncc1F)N2 (racemic) [Example 16]
12

Item: CN1CCCCOc2cc(F)ccc2-c2cc(ncc2F)Nc2cc(CS(C)(=N)=O)cc1n2 (racemic) [Example 11]
12

Item: CC(C)(C)OC(=O)N=S(C)(=O)Cc1cc2nc(c1)Nc1cc(c(F)cn1)-c1ccc(F)cc1OCCCCCN2 (racemic) [Example 9]
36
